testTarget: BACE1 (Homo sapiens (Human))
testSummary: Measurement of BACE1 inhibition by time resolved fluorescence resonance energy transfer (TR-FRET)
Type: biochemical
conditionSummary: Eu-CEVNLDAEFK-QSY 7 substrate, read-out: Test Example 2 IC50
readoutLabel: log10 of IC50 (log10 of the value in nM)
Please note: log10 values; quantity IC50; unit nM.

NC1=NC2(CO1)c1cc(-c3cncc4ccccc34)ccc1OC1(CCC1)C21COC1 (stereo not shown) | 3.69
CC1(C)Oc2ccc(-c3ccc4[nH]ccc4c3)cc2C2(COC(N)=N2)C12COC2 (stereo not shown) | 3.34
CC1(C)Oc2ccc(-c3cnc4[nH]ccc4c3)cc2C2(COC(N)=N2)C12COC2 (stereo not shown) | 2.88
CC1(C)Oc2ccc(-c3c(F)ccc(F)c3F)cc2C2(COC(N)=N2)C12COC2 (stereo not shown) | 3.10
CC1(C)Oc2ccc(-c3cccc4[nH]ccc34)cc2C2(COC(N)=N2)C12COC2 (stereo not shown) | 3.38

Q. log10 of IC50 for CC#Cc1cc(-c2ccc3c(c2)C2(COC(N)=N2)C2(COC2)CO3)ccn1 (stereo not shown) ?
A. 3.43

Q. log10 of IC50 for Cn1cc2cc(-c3ccc4c(c3)C3(COC(N)=N3)C3(CC3)CO4)ccc2n1 (stereo not shown) ?
A. 4.60

Q. log10 of IC50 for COc1ncc(Cl)cc1-c1ccc2c(c1)C1(COC(N)=N1)C1(COC1)C(C)(C)O2 (stereo not shown) ?
A. 2.90

Q. log10 of IC50 for CC1(C)Oc2ccc(-c3ccc(OC(F)F)cc3)cc2C2(COC(N)=N2)C12COC2 (stereo not shown) ?
A. 3.28

Q. log10 of IC50 for Cc1cn2cc(-c3ccc4c(c3)C3(COC(N)=N3)C3(COC3)C3(CCC3)O4)ccc2n1 (stereo not shown) ?
A. 4.98

Q. log10 of IC50 for CC1(C)Oc2ccc(-c3ccnc(Cl)c3)cc2C2(COC(N)=N2)C12COC2 (stereo not shown) ?
A. 3.03

Q. log10 of IC50 for CNC(=O)c1cc(F)cc(-c2ccc3c(c2)C2(COC(N)=N2)C2(COC2)C(C)(C)O3)c1 (stereo not shown) ?
A. 3.48

Q. log10 of IC50 for CC1(C)Oc2ccc(-c3cc(Cl)cnc3F)cc2C2(COC(N)=N2)C12COC2 (stereo not shown) ?
A. 2.50

Q. log10 of IC50 for CC1(C)Oc2ccc(-c3ccc4c(c3)OCO4)cc2C2(COC(N)=N2)C12COC2 (stereo not shown) ?
A. 3.16

Q. log10 of IC50 for CC1(C)Oc2ccc(-c3ccc4nonc4c3)cc2C2(COC(N)=N2)C12COC2 (stereo not shown) ?
A. 2.87

Q. log10 of IC50 for CC#Cc1cncc(-c2ccc3c(c2)C2(COC(N)=N2)C2(COC2)CO3)n1 (stereo not shown) ?
A. 3.41

Q. log10 of IC50 for NC1=NC2(CO1)c1cc(-c3cc(Cl)cnc3F)ccc1OCC21CC1 (stereo not shown) ?
A. 3.05

Q. log10 of IC50 for CC1(C)Oc2ccc(-c3ccc4[nH]ncc4c3)cc2C2(COC(N)=N2)C12COC2 (stereo not shown) ?
A. 3.33

Q. log10 of IC50 for CC1(C)Oc2ccc(-c3cc(C#N)ccc3F)cc2C2(COC(N)=N2)C12COC2 (stereo not shown) ?
A. 2.77

###

testTarget: hERG potassium channel (Homo sapiens (Human), UniProt Q12809)
Sequence (Q12809 whole entry): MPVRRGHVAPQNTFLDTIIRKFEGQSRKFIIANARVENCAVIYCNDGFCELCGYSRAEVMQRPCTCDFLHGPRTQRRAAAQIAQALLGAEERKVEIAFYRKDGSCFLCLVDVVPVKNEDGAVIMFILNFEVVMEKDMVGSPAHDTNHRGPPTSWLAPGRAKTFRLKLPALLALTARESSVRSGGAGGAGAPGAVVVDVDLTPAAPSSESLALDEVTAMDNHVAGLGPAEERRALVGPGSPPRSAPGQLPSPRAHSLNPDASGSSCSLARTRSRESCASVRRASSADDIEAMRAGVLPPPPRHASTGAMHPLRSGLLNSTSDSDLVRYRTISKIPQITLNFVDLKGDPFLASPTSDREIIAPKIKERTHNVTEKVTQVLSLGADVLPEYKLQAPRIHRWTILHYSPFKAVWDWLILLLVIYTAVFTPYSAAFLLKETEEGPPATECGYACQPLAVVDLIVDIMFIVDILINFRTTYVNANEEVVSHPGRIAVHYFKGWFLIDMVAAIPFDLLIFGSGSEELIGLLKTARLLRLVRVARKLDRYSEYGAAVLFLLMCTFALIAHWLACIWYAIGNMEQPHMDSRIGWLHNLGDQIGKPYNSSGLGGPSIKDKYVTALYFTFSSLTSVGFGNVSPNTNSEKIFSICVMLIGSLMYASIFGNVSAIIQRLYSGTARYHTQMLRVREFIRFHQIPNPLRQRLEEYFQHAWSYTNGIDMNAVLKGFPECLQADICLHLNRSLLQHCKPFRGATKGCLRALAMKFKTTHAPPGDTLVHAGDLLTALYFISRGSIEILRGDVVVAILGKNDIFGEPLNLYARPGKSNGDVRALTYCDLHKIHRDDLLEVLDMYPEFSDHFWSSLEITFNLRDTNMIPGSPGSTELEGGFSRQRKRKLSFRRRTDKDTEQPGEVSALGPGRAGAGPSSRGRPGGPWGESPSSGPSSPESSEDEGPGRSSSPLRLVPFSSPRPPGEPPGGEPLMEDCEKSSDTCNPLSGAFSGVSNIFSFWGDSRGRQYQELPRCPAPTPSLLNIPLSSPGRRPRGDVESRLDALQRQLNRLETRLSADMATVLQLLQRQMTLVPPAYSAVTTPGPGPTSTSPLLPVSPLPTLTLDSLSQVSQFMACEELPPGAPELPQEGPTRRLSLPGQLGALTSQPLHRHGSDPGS
testSummary: hERG inhibition, automated planar patch-clamp in hERG-expressing CHO cells
conditionSummary: read-out: Test Example 5 hERG IC50; whole-cell patch clamp, room temperature
pIC50: −log10 of the molar value.
readoutLabel: pIC50

Cc1cnc(F)c(-c2ccc3c(c2)C2(COC(N)=N2)C2(COC2)C2(CCC2)O3)c1 (stereo not drawn) | < 5.00
C[C@@H]1Oc2ccc(-c3cccnc3F)cc2[C@@]2(COC(N)=N2)C12COC2 (racemic) | < 5.00
CC#Cc1cncc(-c2ccc3c(c2)C2(CSC(N)=N2)C2(COC2)CO3)c1 (stereo not drawn) | 5.22
NC1=NC2(CO1)c1cc(-c3cncc4ccccc34)ccc1OC1(CCC1)C21COC1 (stereo not drawn) | 5.43
Cc1cc(C#N)cnc1C(=O)Nc1ccc2c(c1)C1(COC(N)=N1)C1(CC1)CO2 (stereo not drawn) | < 5.00
NC1=NC2(CO1)c1cc(-c3cc(Cl)cnc3F)ccc1OCC21CC1 (stereo not drawn) | 5.49
NC1=NC2(c3cc(-c4cncnc4)ccc3OCC23CC3)c2cccc(F)c21 (stereo not drawn) | 5.37
NC1=NC2(CO1)c1cc(-c3cncnc3)ccc1OC1(CCCC1)C21COC1 (stereo not drawn) | < 5.00

Q. pIC50 for Cc1cncc(-c2ccc3c(c2)C2(COC(N)=N2)C2(COC2)C2(CCC2)O3)c1 (stereo not drawn) ?
A. < 5.00

Q. pIC50 for NC1=NC2(CO1)c1cc(-c3cccnc3)ccc1OC1(CCC1)C21COC1 (stereo not drawn) ?
A. < 5.00

Q. pIC50 for NC1=NC2(COC1)c1cc(-c3cncnc3)ccc1OCC21CC1 (stereo not drawn) ?
A. < 5.00

Q. pIC50 for CCOc1cncc(-c2ccc3c(c2)C2(COC(N)=N2)C2(CC2)CO3)c1 (stereo not drawn) ?
A. 5.24

Q. pIC50 for CC1(C)Oc2ccc(-c3cc(Cl)cnc3F)cc2C2(COC(N)=N2)C12COC2 (stereo not drawn) ?
A. < 6.00

Q. pIC50 for CC#Cc1cncc(-c2ccc3c(c2)C2(COC(N)=N2)C2(CC2)CO3)c1 (single isomer, unassigned) [RP 52a] ?
A. 5.32

Q. pIC50 for COc1cncc(-c2ccc3c(c2)C2(COC(N)=N2)C2(CC2)CO3)c1 (stereo not drawn) ?
A. 5.10

Q. pIC50 for CCC1Oc2ccc(-c3cncnc3)cc2C2(COC(N)=N2)C12COC2 (stereo not drawn) ?
A. < 5.00

Q. pIC50 for N#Cc1cnc(C(=O)Nc2ccc3c(c2)C2(COC(N)=N2)C2(CC2)CO3)c(Cl)c1 (stereo not drawn) ?
A. < 5.00

Q. pIC50 for NC1=NC2(CO1)c1cc(Br)ccc1OC1(CCCC1)C21COC1 (stereo not drawn) ?
A. < 5.00

###

testTarget: BACE1 (Homo sapiens (Human), UniProt P56817)
Sequence (P56817 75-416): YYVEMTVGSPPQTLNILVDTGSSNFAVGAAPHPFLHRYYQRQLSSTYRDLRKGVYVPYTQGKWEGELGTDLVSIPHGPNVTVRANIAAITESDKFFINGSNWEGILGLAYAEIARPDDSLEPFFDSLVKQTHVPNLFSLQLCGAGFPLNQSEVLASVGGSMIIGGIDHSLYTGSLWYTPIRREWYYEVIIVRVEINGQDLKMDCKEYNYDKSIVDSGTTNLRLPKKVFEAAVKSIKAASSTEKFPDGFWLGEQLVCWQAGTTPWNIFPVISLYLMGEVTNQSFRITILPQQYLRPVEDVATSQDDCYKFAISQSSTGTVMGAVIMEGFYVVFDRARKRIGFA
testSummary: Measurement of BACE1 inhibition by fluorescence resonance energy transfer (FRET), MCA substrate
conditionSummary: read-out: Test Example 1 IC50; FRET, MCA-SEVNLDAEFK(DNP)-NH2 substrate, pH 4.4
pIC50: −log10 of the molar value.
Is pIC50 at least 6? Then satisfied. If not, not satisfied.

Record excerpt, results attached:
CCC(CC)Cc1ccc2c(c1)C1(COC(N)=N1)C1(COC1)C1(CCC1)O2 (centres unmarked) | not satisfied
CC#Cc1cncc(-c2ccc3c(c2)C2(COC(N)=N2)C2(COC2)C(CC)O3)c1 (centres unmarked) | satisfied
NC1=NC2(CO1)c1cc(-c3ccc(F)nc3)ccc1OC1(CCC1)C21COC1 (centres unmarked) | not satisfied
Cc1cccc(CCc2ccc3c(c2)C2(COC(N)=N2)C2(COC2)CO3)c1 (centres unmarked) | not satisfied

Q. In plain terms: is recorded pIC50 at least 6 for CC(C)CC1Oc2ccc(-c3cncnc3)cc2C2(COC(N)=N2)C12COC2 (centres unmarked) [RP 93] ?
A. satisfied

###

testTarget: hERG potassium channel (Homo sapiens (Human), UniProt Q12809)
testSummary: hERG inhibition, automated planar patch-clamp in hERG-expressing CHO cells
conditionSummary: read-out: Test Example 5 hERG IC50; whole-cell patch clamp, room temperature
readoutLabel: IC50

For orientation, consider the following solved cases.
NC1=NC2(CO1)c1cc(-c3cncnc3)ccc1OC(CC1CC1)C21COC1 (stereo not drawn) [RP 204] | > 10 µM
NC1=NC2(CO1)c1cc(-c3cncnc3)ccc1OCC21CC1 (stereo not drawn) | > 10 µM
NC1=NC2(CO1)c1cc(-c3cncnc3)ccc1OC(C1CC1)C21COC1 (stereo not drawn) | > 10 µM
NC1=NC2(CO1)c1cc(-c3cncnc3)ccc1OCC21CCC1 (stereo not drawn) | 5.28 µM
CC1(C)Oc2ccc(Br)cc2C2(COC(N)=N2)C12COC2 (stereo not drawn) | > 10 µM
Cc1cn2cc(-c3ccc4c(c3)C3(COC(N)=N3)C3(COC3)C3(CCC3)O4)ccc2n1 (stereo not drawn) | > 10 µM
NC1=NC2(CO1)c1cc(-c3cccnc3F)ccc1OC1(CCC1)C21COC1 (stereo not drawn) | > 10 µM
CCc1cncc(-c2ccc3c(c2)C2(COC(N)=N2)C2(CC2)CO3)c1 (stereo not drawn) | 4.48 µM
Cn1cc2cc(-c3ccc4c(c3)C3(COC(N)=N3)C3(CC3)CO4)ccc2n1 (stereo not drawn) | > 10 µM
NC1=NC2(c3cc(-c4cncnc4)ccc3OCC23CC3)C(F)(F)CS1 (stereo not drawn) | > 1 µM

Q. IC50 for CC#Cc1cncc(-c2ccc3c(c2)C2(COC(N)=N2)C2(CC2)CO3)c1 (stereo not drawn) [RP 111] ?
A. 1.98 µM

Q. IC50 for NC1=NC2(CO1)c1cc(Br)ccc1OC(Cc1ccccc1)C21COC1 (single isomer, unassigned) [RP 15b] ?
A. 7.93 µM

Q. IC50 for Cc1cnnc(-c2ccc3c(c2)C2(COC(N)=N2)C2(COC2)C2(CCC2)O3)c1 (stereo not drawn) ?
A. > 10 µM

Q. IC50 for NC1=NC2(CO1)c1cc(-c3cncc(C(F)(F)F)c3)ccc1OC1(CCC1)C21COC1 (stereo not drawn) ?
A. > 10 µM

Q. IC50 for COCc1cnn(-c2ccc3c(c2)C2(COC(N)=N2)C2(COC2)C2(CCC2)O3)c1 (stereo not drawn) ?
A. > 10 µM

Q. IC50 for CCCC1Oc2ccc(-c3cncnc3)cc2C2(COC(N)=N2)C12COC2 (stereo not drawn) ?
A. > 10 µM

Q. IC50 for CC(C)Cc1ccc2c(c1)C1(COC(N)=N1)C1(COC1)C1(CCC1)O2 (stereo not drawn) ?
A. > 10 µM

Q. IC50 for COc1cnc(C(=O)Nc2ccc3c(c2)[C@@]2(COC(N)=N2)C2(COC2)C(C)(C)O3)cn1 ?
A. > 10 µM
